Hey, just so you know, these numbers are from patent US8652790B2.

# SYSTEM_UNDER_TEST: calmodulin (Homo sapiens)
# MEASUREMENT_NOTES: Populations of J, α, ω motional classes of calmodulin methyl O^2axis distributions in the complexes
# STUDY_CONDITIONS: area under fitted Gaussian, fixed centres

SUBSTANCE: KRRAIGFKKLAEAVKFSAKLMGQ [nNOS(p)]
% α, %: 14.7
--
SUBSTANCE: QTEKMWQRLKGILRSLVKQ [PDE(p)]
% α, %: 18.9
--
SUBSTANCE: RKKTFKEVANAVKISASLMG [eNOS(p)]
% α, %: 18.4
--
SUBSTANCE: (COOH-FPNGFSRKRLMSKVLIVTTWSPLL [CaMKKα(p)]
% α, %: 21.3
--
SUBSTANCE: AKSKWKQAFNATAVVRHMRKLQ (listed as Homo sapiens) [CaMKI(p)]
% α, %: 24.8

###

Item-by-item account of Δ O^2axis Target
# SYSTEM_UNDER_TEST: calmodulin (Homo sapiens, UniProt P0DP23)
# MEASUREMENT_NOTES: Uncalibrated estimate of conformational entropy of binding from methyl group dynamics of CaM and target domain
# Design: made in house
# STUDY_CONDITIONS: O^2axis of 0.101 assumed for the free target domain

SUBSTANCE: AKSKWKQAFNATAVVRHMRKLQ (listed as Homo sapiens) [CaMKI(p)]
Δ O^2axis Target: 0.555
//
SUBSTANCE: (COOH-FPNGFSRKRLMSKVLIVTTWSPLL [CaMKKα(p)]
Δ O^2axis Target: 0.329
//
SUBSTANCE: RKKTFKEVANAVKISASLMG [eNOS(p)]
Δ O^2axis Target: 0.567
//
SUBSTANCE: KRRAIGFKKLAEAVKFSAKLMGQ [nNOS(p)]
Δ O^2axis Target: 0.528

###

Item-by-item account of TSharm
# SYSTEM_UNDER_TEST: calmodulin (Homo sapiens, UniProt P0DP23)
# MEASUREMENT_NOTES: Change in conformational entropy of calmodulin on binding a target domain, estimated from methyl O^2axis (harmonic oscillator model)
# STUDY_CONDITIONS: motion within a rotameric well, simple harmonic oscillator; 308 K

SUBSTANCE: RKKTFKEVANAVKISASLMG [eNOS(p)]
SYSTEM_UNDER_TEST: calmodulin (Homo sapiens, UniProt P0DP23)
OUTPUT_UNIT: kcal/mol
TSharm: 144.6
--
SUBSTANCE: KRRAIGFKKLAEAVKFSAKLMGQ [nNOS(p)]
SYSTEM_UNDER_TEST: calmodulin (Homo sapiens, UniProt P0DP23)
OUTPUT_UNIT: kcal/mol
TSharm: 147.8
--
SUBSTANCE: AKSKWKQAFNATAVVRHMRKLQ (listed as Homo sapiens) [CaMKI(p)]
SYSTEM_UNDER_TEST: calmodulin (Homo sapiens, UniProt P0DP23)
OUTPUT_UNIT: kcal/mol
TSharm: 141.8
--
SUBSTANCE: QTEKMWQRLKGILRSLVKQ [PDE(p)]
SYSTEM_UNDER_TEST: calmodulin (Homo sapiens, UniProt P0DP23)
OUTPUT_UNIT: kcal/mol
TSharm: 148.3
--
SUBSTANCE: (COOH-FPNGFSRKRLMSKVLIVTTWSPLL [CaMKKα(p)]
SYSTEM_UNDER_TEST: calmodulin (Homo sapiens, UniProt P0DP23)
OUTPUT_UNIT: kcal/mol
TSharm: 142.9

###

# SYSTEM_UNDER_TEST: calmodulin (Homo sapiens)
# MEASUREMENT_NOTES: Populations of J, α, ω motional classes of calmodulin methyl O^2axis distributions in the complexes
# STUDY_CONDITIONS: area under fitted Gaussian, fixed centres
READOUT_LABEL: % J (%)

SUBSTANCE: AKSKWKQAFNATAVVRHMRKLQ (listed as Homo sapiens) [CaMKI(p)]
SYSTEM_UNDER_TEST: calmodulin (Homo sapiens)
OUTPUT_UNIT: %
VAL: 38.2
--
SUBSTANCE: (COOH-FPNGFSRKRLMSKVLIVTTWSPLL [CaMKKα(p)]
SYSTEM_UNDER_TEST: calmodulin (Homo sapiens)
OUTPUT_UNIT: %
VAL: 38.5
--
SUBSTANCE: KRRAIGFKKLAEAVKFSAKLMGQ [nNOS(p)]
SYSTEM_UNDER_TEST: calmodulin (Homo sapiens)
OUTPUT_UNIT: %
VAL: 51.6
--
SUBSTANCE: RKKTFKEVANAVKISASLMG [eNOS(p)]
SYSTEM_UNDER_TEST: calmodulin (Homo sapiens)
OUTPUT_UNIT: %
VAL: 45.6
--
SUBSTANCE: QTEKMWQRLKGILRSLVKQ [PDE(p)]
SYSTEM_UNDER_TEST: calmodulin (Homo sapiens)
OUTPUT_UNIT: %
VAL: 48.3

###

Item-by-item account of % ω
# SYSTEM_UNDER_TEST: calmodulin (Homo sapiens, UniProt P0DP23)
# MEASUREMENT_NOTES: Populations of J, α, ω motional classes of calmodulin methyl O^2axis distributions in the complexes
# STUDY_CONDITIONS: area under fitted Gaussian, fixed centres
READOUT_LABEL: % ω (%)

SUBSTANCE: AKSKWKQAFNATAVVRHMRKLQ (listed as Homo sapiens) [CaMKI(p)]
READOUT_LABEL: % ω
VAL: 37.0

SUBSTANCE: QTEKMWQRLKGILRSLVKQ [PDE(p)]
READOUT_LABEL: % ω
VAL: 32.8

SUBSTANCE: (COOH-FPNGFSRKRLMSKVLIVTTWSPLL [CaMKKα(p)]
READOUT_LABEL: % ω
VAL: 40.3

SUBSTANCE: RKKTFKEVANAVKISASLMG [eNOS(p)]
READOUT_LABEL: % ω
VAL: 36.0

SUBSTANCE: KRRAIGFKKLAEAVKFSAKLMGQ [nNOS(p)]
READOUT_LABEL: % ω
VAL: 33.7

###

# SYSTEM_UNDER_TEST: calmodulin (Homo sapiens)
# MEASUREMENT_NOTES: Change in conformational entropy of calmodulin on binding a target domain, estimated from methyl O^2axis (harmonic oscillator model)
# STUDY_CONDITIONS: absolute conformational entropy of calmodulin in complex; 308 K
READOUT_LABEL: TSconf (kJ/mol)

SUBSTANCE: QTEKMWQRLKGILRSLVKQ [PDE(p)]
SYSTEM_UNDER_TEST: calmodulin (Homo sapiens)
VAL: 744.2
--
SUBSTANCE: (COOH-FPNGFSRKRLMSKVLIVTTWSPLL [CaMKKα(p)]
SYSTEM_UNDER_TEST: calmodulin (Homo sapiens)
VAL: 705.6
--
SUBSTANCE: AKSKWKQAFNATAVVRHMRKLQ (listed as Homo sapiens) [CaMKI(p)]
SYSTEM_UNDER_TEST: calmodulin (Homo sapiens)
VAL: 703.0
--
SUBSTANCE: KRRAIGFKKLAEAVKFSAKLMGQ [nNOS(p)]
SYSTEM_UNDER_TEST: calmodulin (Homo sapiens)
VAL: 753.1
--
SUBSTANCE: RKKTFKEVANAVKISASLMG [eNOS(p)]
SYSTEM_UNDER_TEST: calmodulin (Homo sapiens)
VAL: 723.0

###

# SYSTEM_UNDER_TEST: calmodulin (Homo sapiens)
# MEASUREMENT_NOTES: Uncalibrated estimate of conformational entropy of binding from methyl group dynamics of CaM and target domain
# Set-up: made in house
# STUDY_CONDITIONS: normalized to number of amino acids in calmodulin (148) and target domain
Item-by-item account of Normalized Δ O^2axis

SUBSTANCE: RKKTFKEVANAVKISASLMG [eNOS(p)]
Normalized Δ O^2axis: 23.328
//
SUBSTANCE: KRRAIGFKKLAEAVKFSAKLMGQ [nNOS(p)]
Normalized Δ O^2axis: 19.396
//
SUBSTANCE: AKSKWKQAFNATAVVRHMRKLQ (listed as Homo sapiens) [CaMKI(p)]
Normalized Δ O^2axis: 28.046
//
SUBSTANCE: (COOH-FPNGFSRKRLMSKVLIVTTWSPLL [CaMKKα(p)]
Normalized Δ O^2axis: 22.632

###

Item-by-item account of ΔSfast^conf
# SYSTEM_UNDER_TEST: calmodulin (Homo sapiens, UniProt P0DP23)
# MEASUREMENT_NOTES: Uncalibrated estimate of conformational entropy of binding from methyl group dynamics of CaM and target domain
# Design: made in house
# STUDY_CONDITIONS: harmonic oscillator plus fast minor rotamer states
# Text: Using deuterium NMR relaxation methods, fast motion of the methyl-bearing side-chains of the target domains in the six CaM complexes were examined. […] To compare dynamics in the various complexes, we employ a normalization procedure to account for variation in the number of methyl sites in CaM whose motion could be quantified and to account for the fact that, although fully resolved, the number of residues in the target domains ranges between 20 and 26. […]
READOUT_LABEL: ΔSfast^conf (kcal/mol)

SUBSTANCE: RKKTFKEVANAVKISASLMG [eNOS(p)]
OUTPUT_UNIT: kcal/mol
VAL: 50.278
--
SUBSTANCE: (COOH-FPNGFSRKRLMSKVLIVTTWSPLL [CaMKKα(p)]
OUTPUT_UNIT: kcal/mol
VAL: 48.2921
--
SUBSTANCE: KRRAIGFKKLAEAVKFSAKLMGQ [nNOS(p)]
OUTPUT_UNIT: kcal/mol
VAL: 41.5545
--
SUBSTANCE: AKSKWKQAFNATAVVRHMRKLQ (listed as Homo sapiens) [CaMKI(p)]
OUTPUT_UNIT: kcal/mol
VAL: 60.2916
